Data origin, for the record: patent US12350259B2

- Test name: Atogepant-rifampin drug interaction study: atogepant plasma PK
- Assay type: in vivo, human
- Condition description: both sexes, human, plasma, oral, Treatment B1: atogepant 60 mg + single-dose rifampin 600 mg; read-out: Cmax
- Protocol: The study consisted of a Screening Visit, two study periods, an end-of-treatment (EOT) visit, and a follow-up visit. […] [table] […] Relative to the time that atogepant was administered, blood samples for atogepant plasma PK were to be collected at the following times: • Days 1 and 12: 0 hour (predose) and at 0.5, 1, 1.5, 2, 3, 4, 6, 8, 12, 16, 24, 36, and 48 hours post dose. • Day 7: 0 hour (predose) and at 0.5, 1, 1.5, 2, 3, 4, 6, 8, 12, 16, and 24 hours postdose
Measured endpoint: Cmax (ng/mL)
Please respond with the number in ng/mL and leave the unit unwritten.

Which value of Cmax has been reported for C[C@@H]1[C@H](c2c(F)ccc(F)c2F)C[C@H](NC(=O)c2cnc3c(c2)C[C@@]2(C3)C(=O)Nc3ncccc32)C(=O)N1CC(F)(F)F in the records?
1550
